- Test system: P12-Ichikawa
- protocol_text: cell viability relative to DMSO control; higher = less cytotoxic
- measurement_context: HPLM + 10% dialyzed FBS; 48 h; 1.71 µM
Answer each item with its documented cell viability.
The figure you give is taken to be in %; do not add the unit.

Complete the entry with cell viability for `C[C@](O)(CS(=O)(=O)c1ccc(F)cc1)C(=O)Nc1ccc(C#N)c(C(F)(F)F)c1`
119

Complete the entry with cell viability for `O=C1[C@H](Cc2ccc(O)cc2)N2C(=O)CCN(C(=O)NCc3ccccc3)[C@H]2CN1Cc1cccc2ccccc12`
85.5

Complete the entry with cell viability for `C[C@]12CCC(=O)C=C1CC[C@@H]1[C@@H]2[C@@H](O)C[C@@]2(C)[C@H]1CC[C@]2(O)C(=O)CO`
94.1

Complete the entry with cell viability for `CN[C@H]1CCC2=CC(=C(OC)C(=C2C/3=C/C=C(OC)\C(=O)/C=C13)OC)OC`
8.53

Complete the entry with cell viability for `CC(C)c1noc(N2CCC(COc3ccc(-c4ccc([S+](C)(=O)[O-])cc4)nc3)CC2)n1`
106

Complete the entry with cell viability for `O=c1[nH]c(=O)n([C@H]2C[C@H](O)[C@@H](CO)O2)cc1/C=C/Br`
70

Complete the entry with cell viability for `CCOC(=O)[C@@H](N)Cc1ccc(-c2cc(O[C@H](c3ccc(Cl)cc3-n3ccc(C)n3)C(F)(F)F)nc(N)n2)cc1.O=C(O)CNC(=O)c1ccccc1`
111

Complete the entry with cell viability for CCc1ccc(CCOc2ccc(CC3SC(=O)NC3=O)cc2)nc1 (stereo not given)
113

Complete the entry with cell viability for CNC(=O)c1ccc2cc(C3(O)CCn4cncc43)ccc2c1 (stereo not given)
102

Complete the entry with cell viability for Cc1nn(Cc2ccccc2Cl)c(C)c1CN(C)CC(O)COc1ccc(Cl)cc1 (stereo not given)
97.4

Complete the entry with cell viability for `CN(C)[S+](=O)([O-])c1ccc2c(c1)C(=Cc1cc3c([nH]1)CCCC3)C(=O)N2`
122

Complete the entry with cell viability for `O=C(O)Cn1nnc(-c2cc(N3CCC(Oc4cc(F)ccc4Br)CC3)no2)n1`
112

Complete the entry with cell viability for `CC(C)OC(=O)C(C(=O)OC(C)C)=C1S\C=C/S1`
124

Complete the entry with cell viability for CC(C)C1NC(=O)C(NC(=O)C2=C3\N=C\4/C(=C(C)\C(=O)\C(=C4C(=O)NC5C(C)OC(=O)C(C(C)C)N(C)C(=O)CN(C)C(=O)C6CCCN6C(=O)C(NC5=O)C(C)C)N)OC3=C(C)C=C2)C(C)OC(=O)C(C(C)C)N(C)C(=O)CN(C)C(=O)C7CCCN7C1=O (stereo not given)
5.74

Complete the entry with cell viability for `CN(C)C1CCN(C(=O)c2ccc(NC(=O)Nc3nc(N4CCOCC4)nc(N4CCOCC4)n3)cc2)CC1`
64.2

====

- System: NOMO1
- protocol_text: cell viability relative to DMSO control; higher = less cytotoxic
- measurement_context: RPMI 5 mM glucose + 10% dialyzed FBS; 48 h; 0.00702 µM
Answer each item with its documented cell viability.
The figure you give is taken to be in %; do not add the unit.

Complete the entry with cell viability for C[C@](Cc1c[nH]c2ccccc12)(NC(=O)OC1C2CC3CC(C2)CC1C3)C(=O)NC[C@H](NC(=O)CCC(=O)O)c1ccccc1 (stereo not given in full)
120

Complete the entry with cell viability for `C[C@H](NC(=O)c1sccc1OCc1ccc(Cl)cc1)c1ccccc1`
77.9

Complete the entry with cell viability for `Clc1ccc(-c2nc3sccn3c2/C=N/OCc2ccc(Cl)c(Cl)c2)cc1`
123

Complete the entry with cell viability for `CC[C@H](/C=C/[C@@H](C)[C@H]1CC[C@H]2[C@@H]3CC=C4C[C@@H](O)CC[C@]4(C)[C@H]3CC[C@]12C)C(C)C`
91.1

Complete the entry with cell viability for `C[C@](O)(CS(=O)(=O)c1ccc(F)cc1)C(=O)Nc1ccc(C#N)c(C(F)(F)F)c1`
132

====

- Test system: P12-Ichikawa
- protocol_text: cell viability relative to DMSO control; higher = less cytotoxic
- measurement_context: RPMI 5 mM glucose + 10% dialyzed FBS; 48 h; 0.00702 µM
measured_endpoint: cell viability (%)
The figure you give is taken to be in %; do not add the unit.

Complete the entry with cell viability for COc1ccccc1OCC(O)COC(N)=O (stereo unspecified)
101

Complete the entry with cell viability for `C[C@@H]1COCCN1c1cc(C2([S@+](C)(=N)[O-])CC2)nc(-c2ccnc3[nH]ccc23)n1`
117

Complete the entry with cell viability for O=C(O)C1(Cc2cccc(Nc3nccs3)n2)CCC(Oc2cccc(Cl)c2F)CC1 (stereo unspecified)
118

Complete the entry with cell viability for `CCN1CCN(c2ccc(Nc3cc(N(C)C(=O)Nc4c(Cl)c(OC)cc(OC)c4Cl)ncn3)cc2)CC1`
108

Complete the entry with cell viability for `COc1cc(OC2CCN(C)CC2)ccc1Nc1ncc2c(n1)n(C1CCCC1)c(=O)n2C`
76.3

Complete the entry with cell viability for `C[C@]12CC[C@@H]3c4ccc(O)cc4CC[C@H]3[C@@H]1[C@@H](O)[C@@H](O)[C@@H]2O`
118

====

Answer each item with its documented cell viability.
- Tested on: NOMO1
- protocol_text: cell viability relative to DMSO control; higher = less cytotoxic
- measurement_context: RPMI 5 mM glucose + 10% dialyzed FBS; 48 h; 0.569 µM
The figure you give is taken to be in %; do not add the unit.

Complete the entry with cell viability for `O=C(O)Cn1nnc(-c2cc(N3CCC(Oc4cc(F)ccc4Br)CC3)no2)n1`
112

Complete the entry with cell viability for `C[C@]12CC[C@H]3[C@@H](CC[C@H]4NC(=O)\C=C/[C@]34C)[C@@H]1CC[C@@H]2C(=O)NC5=CC(=CC=C5C(F)(F)F)C(F)(F)F`
111

Complete the entry with cell viability for `Cc1coc2c1C(=O)C(=O)c1c-2ccc2c(C)cccc12`
106

Complete the entry with cell viability for `O=C1[C@H](Cc2ccc(O)cc2)N2C(=O)CCN(C(=O)NCc3ccccc3)[C@H]2CN1Cc1cccc2ccccc12`
84.2

Complete the entry with cell viability for `C[C@H](NC(=O)c1sccc1OCc1ccc(Cl)cc1)c1ccccc1`
66.8

Complete the entry with cell viability for `S=C(NCc1ccc2c(c1)OCO2)N1CCN(c2ncnc3c2oc2ccccc23)CC1`
112

Complete the entry with cell viability for COc1ccccc1OCC(O)COC(N)=O (stereo unspecified)
102

Complete the entry with cell viability for `CC(C)c1nc(CN(C)C(=O)N[C@H](C(=O)N[C@@H](Cc2ccccc2)C[C@H](O)[C@H](Cc2ccccc2)NC(=O)OCc2cncs2)C(C)C)cs1`
81.7

Complete the entry with cell viability for `C[C@@]12C(=O)OC(=O)[C@@]1(C)C1CCC2O1`
88.6

Complete the entry with cell viability for CC1CNc2c(cccc2[S+](=O)([O-])N[C@@H](CCCNC(=N)N)C(=O)N2CC[C@@H](C)C[C@@H]2C(=O)O)C1 (stereo partly specified)
101

Complete the entry with cell viability for `CN1CCN(C2=Nc3cc(Cl)ccc3Nc3ccccc32)CC1`
110

Complete the entry with cell viability for COC(=O)C[C@](O)(CCCC(C)(C)O)C(=O)O[C@@H]1C(OC)=CC23CCCN2CCc2cc4c(cc2[C@H]13)OCO4 (stereo partly specified)
101

Complete the entry with cell viability for `C[C@H]1COC2=C3N1\C=C(C(O)=O)/C(=O)C3=CC(=C2N4CCN(C)CC4)F`
112

Complete the entry with cell viability for `COc1cc(OC2CCN(C)CC2)ccc1Nc1ncc2c(n1)n(C1CCCC1)c(=O)n2C`
91.6

Complete the entry with cell viability for `CCN1CCN(c2ccc(Nc3cc(N(C)C(=O)Nc4c(Cl)c(OC)cc(OC)c4Cl)ncn3)cc2)CC1`
111

Complete the entry with cell viability for `OC[C@@H](O)[C@@H](O)[C@H](O)[C@@H](O)CO`
122

====

Answer each item with its documented cell viability.
- Tested on: SEM cells
- protocol_text: cell viability relative to DMSO control; higher = less cytotoxic
- measurement_context: RPMI 5 mM glucose + 10% dialyzed FBS; 48 h; 0.00234 µM
The figure you give is taken to be in %; do not add the unit.

Complete the entry with cell viability for `O=C(Nc1cccc(C(F)(F)F)c1)Nc1cc([S+](=O)([O-])NC2CC2)ccc1-c1ccsc1`
107

Complete the entry with cell viability for `C[C@H](NC(=O)c1sccc1OCc1ccc(Cl)cc1)c1ccccc1`
97.3

Complete the entry with cell viability for CC1=C(C)C(=O)C(C(CCCCCC(=O)O)c2ccccc2)=C(C)C1=O (stereo not drawn)
74.5

Complete the entry with cell viability for `CCN1CCN(c2ccc(Nc3cc(N(C)C(=O)Nc4c(Cl)c(OC)cc(OC)c4Cl)ncn3)cc2)CC1`
84

Complete the entry with cell viability for `C[N]1C=C(C=N1)C2=C3\C=N/NC(=O)C4=C3C(=CC(=C4)NC(=O)[C@H](N)C5CCCCC5)[NH]2`
50.8

Complete the entry with cell viability for `CC(C)(O)CC[C@@H](O)[C@](C)(O)[C@H]1CC[C@@]2(O)C/3=C/C(=O)[C@@H]4C[C@@H](O)[C@@H](O)C[C@]4(C)[C@H]3CC[C@]12C`
106

Complete the entry with cell viability for `FC1=CC=C(C=C1)N2/C=C\C=C(C(=O)NC3=CC=C(OC4=C5C=C[NH]C5=NC=C4)C(=C3)F)/C2=O`
96.9

Complete the entry with cell viability for `O=C(O)Cn1nnc(-c2cc(N3CCC(Oc4cc(F)ccc4Br)CC3)no2)n1`
88.9

Complete the entry with cell viability for COC(=O)C[C@](O)(CCCC(C)(C)O)C(=O)O[C@@H]1C(OC)=CC23CCCN2CCc2cc4c(cc2[C@H]13)OCO4 (stereo partly drawn)
100

Complete the entry with cell viability for `FC1=C(C=C(C\C2=N\NC(=O)C3=C2C=CC=C3)C=C1)C(=O)N4CCN(CC4)C(=O)C5CC5`
79

Complete the entry with cell viability for `CC(C)c1nc(CN(C)C(=O)N[C@H](C(=O)N[C@@H](Cc2ccccc2)C[C@H](O)[C@H](Cc2ccccc2)NC(=O)OCc2cncs2)C(C)C)cs1`
113

Complete the entry with cell viability for C[C@](Cc1c[nH]c2ccccc12)(NC(=O)OC1C2CC3CC(C2)CC1C3)C(=O)NC[C@H](NC(=O)CCC(=O)O)c1ccccc1 (stereo partly drawn)
91

Complete the entry with cell viability for `C[S+](=O)([O-])Nc1ccc([N+](=O)[O-])cc1Oc1ccccc1`
112
